PROTOCOL SUMMARY: The maximum time reported (tmax) at an oral dose of 50 mg/Kg in mice
Type: ADME, organism-based
CONDITION LABEL: mouse, in vivo
As shown below, each of these compounds has a reported Tmax value.
Entry rule: numbers only, all in min.

Observe how each entry below is paired with its result.
Clc1ccc(Nc2nnc(Cc3ccncc3)c3ccccc23)cc1.O=C(O)CCC(=O)O; 15
CC(C)(C)c1ccc(Nc2nnc(Cc3ccncc3)c3ccccc23)cc1; 30
FC(F)(F)c1cc(Nc2nnc(Cc3ccncc3)c3ccccc23)ccc1Cl; 120
FC(F)(F)c1cc(Br)cc(Nc2nnc(Cc3ccncc3)c3ccccc23)c1; 120
Cc1cc(C)cc(Nc2nnc(Cc3ccncc3)c3ccccc23)c1; 30

Quick note, Tmax for `COc1cccc(Nc2nnc(Cc3ccncc3)c3ccccc23)c1` landed at 30

Quick note, Tmax for `Clc1ccc(Nc2nnc(Cc3ccncc3)c3ccccc23)cc1Cl` landed at 30

###

PROTOCOL SUMMARY: The maximum concentration observed (Cmax) in the blood sample at indicated time point (tmax) at a dose 50 mg/Kg administered orally in mice.
Format: ADME, organism-based
Parameters: dose 50 mg/Kg, route oral
CONDITION LABEL: mouse, in vivo, po
METRIC: log10 of Cmax (log10 of the value in µM)
Response schema: value (number) is log10 of Cmax in units of µM.

Observe how each entry below is paired with its result.
Oc1cccc(Nc2nnc(Cc3ccncc3)c3ccccc23)c1; -0.30
CC(C)(C)c1ccc(Nc2nnc(Cc3ccncc3)c3ccccc23)cc1; 1.41
FC(F)(F)c1cc(Br)cc(Nc2nnc(Cc3ccncc3)c3ccccc23)c1; 0.78
Clc1ccc(Nc2nnc(Cc3ccncc3)c3ccccc23)cc1Cl; 0.99
Cc1cccc(Nc2nnc(Cc3ccncc3)c3ccccc23)c1; 1.11
FC(F)(F)c1cc(Nc2nnc(Cc3ccncc3)c3ccccc23)ccc1Cl; 0.88

Note: attention shifts to another entry.
Quick note, log10 of Cmax for `Cc1cc(C)cc(Nc2nnc(Cc3ccncc3)c3ccccc23)c1` landed at 1.00

###

Record type: IC50 measurement. Applies to: Platelet-derived growth factor receptor beta (Homo sapiens, UniProt P09619)
Entry rule: numbers only, all in µM.

Observe how each entry below is paired with its result.
COc1cccc(Nc2nnc(Cc3ccncc3)c3ccccc23)c1; 0.8
Cc1cc(C)cc(Nc2nnc(Cc3ccncc3)c3ccccc23)c1; 0.8
c1ccc(-c2ccc(Nc3nnc(Cc4ccncc4)c4ccccc34)cc2)cc1; 1.4

Case `c1ccc(Nc2nnc(Cc3ccncc3)c3ccccc23)cc1` , Platelet-derived growth factor receptor beta (Homo sapiens, UniProt P09619), IC50 recorded as 2.8

###

As shown below, each of these compounds has a reported IC50 value.
SYSTEM TESTED: Mast/stem cell growth factor receptor Kit (Homo sapiens)
Sequence (P10721 whole entry): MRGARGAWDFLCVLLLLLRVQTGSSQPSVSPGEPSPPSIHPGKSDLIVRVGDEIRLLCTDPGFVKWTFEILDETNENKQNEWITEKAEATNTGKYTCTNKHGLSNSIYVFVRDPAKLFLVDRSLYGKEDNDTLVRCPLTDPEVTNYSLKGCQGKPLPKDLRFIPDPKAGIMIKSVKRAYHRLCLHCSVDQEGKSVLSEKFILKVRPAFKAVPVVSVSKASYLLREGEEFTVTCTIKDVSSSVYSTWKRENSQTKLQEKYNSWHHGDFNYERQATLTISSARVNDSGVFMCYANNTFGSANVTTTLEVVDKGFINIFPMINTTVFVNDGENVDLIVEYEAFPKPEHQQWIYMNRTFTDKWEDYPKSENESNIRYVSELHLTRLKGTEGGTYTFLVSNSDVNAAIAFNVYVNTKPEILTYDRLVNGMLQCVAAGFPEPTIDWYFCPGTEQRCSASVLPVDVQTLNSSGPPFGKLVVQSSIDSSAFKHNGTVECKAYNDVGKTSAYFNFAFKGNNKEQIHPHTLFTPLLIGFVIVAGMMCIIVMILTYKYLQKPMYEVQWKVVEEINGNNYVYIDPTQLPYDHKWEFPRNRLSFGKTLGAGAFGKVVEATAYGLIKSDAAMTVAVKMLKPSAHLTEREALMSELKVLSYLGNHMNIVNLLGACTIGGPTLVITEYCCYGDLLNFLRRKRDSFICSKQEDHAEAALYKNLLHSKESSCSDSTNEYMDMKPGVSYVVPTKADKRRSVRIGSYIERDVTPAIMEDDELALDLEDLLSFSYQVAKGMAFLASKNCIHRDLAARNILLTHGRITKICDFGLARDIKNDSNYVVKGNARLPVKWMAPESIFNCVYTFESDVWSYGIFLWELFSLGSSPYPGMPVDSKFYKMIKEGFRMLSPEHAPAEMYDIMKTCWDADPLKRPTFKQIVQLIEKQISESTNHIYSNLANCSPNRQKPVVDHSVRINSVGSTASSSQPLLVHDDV
Entry rule: numbers only, all in nM.

Cc1cc(C)cc(Nc2nnc(Cc3ccncc3)c3ccccc23)c1; 2000

Note: attention shifts to another entry.
Quick note, IC50 for `c1ccc(-c2ccc(Nc3nnc(Cc4ccncc4)c4ccccc34)cc2)cc1` landed at 1400

###

SYSTEM TESTED: Vascular endothelial growth factor receptor 2 (Homo sapiens, UniProt P35968)
Sequence (P35968 whole entry): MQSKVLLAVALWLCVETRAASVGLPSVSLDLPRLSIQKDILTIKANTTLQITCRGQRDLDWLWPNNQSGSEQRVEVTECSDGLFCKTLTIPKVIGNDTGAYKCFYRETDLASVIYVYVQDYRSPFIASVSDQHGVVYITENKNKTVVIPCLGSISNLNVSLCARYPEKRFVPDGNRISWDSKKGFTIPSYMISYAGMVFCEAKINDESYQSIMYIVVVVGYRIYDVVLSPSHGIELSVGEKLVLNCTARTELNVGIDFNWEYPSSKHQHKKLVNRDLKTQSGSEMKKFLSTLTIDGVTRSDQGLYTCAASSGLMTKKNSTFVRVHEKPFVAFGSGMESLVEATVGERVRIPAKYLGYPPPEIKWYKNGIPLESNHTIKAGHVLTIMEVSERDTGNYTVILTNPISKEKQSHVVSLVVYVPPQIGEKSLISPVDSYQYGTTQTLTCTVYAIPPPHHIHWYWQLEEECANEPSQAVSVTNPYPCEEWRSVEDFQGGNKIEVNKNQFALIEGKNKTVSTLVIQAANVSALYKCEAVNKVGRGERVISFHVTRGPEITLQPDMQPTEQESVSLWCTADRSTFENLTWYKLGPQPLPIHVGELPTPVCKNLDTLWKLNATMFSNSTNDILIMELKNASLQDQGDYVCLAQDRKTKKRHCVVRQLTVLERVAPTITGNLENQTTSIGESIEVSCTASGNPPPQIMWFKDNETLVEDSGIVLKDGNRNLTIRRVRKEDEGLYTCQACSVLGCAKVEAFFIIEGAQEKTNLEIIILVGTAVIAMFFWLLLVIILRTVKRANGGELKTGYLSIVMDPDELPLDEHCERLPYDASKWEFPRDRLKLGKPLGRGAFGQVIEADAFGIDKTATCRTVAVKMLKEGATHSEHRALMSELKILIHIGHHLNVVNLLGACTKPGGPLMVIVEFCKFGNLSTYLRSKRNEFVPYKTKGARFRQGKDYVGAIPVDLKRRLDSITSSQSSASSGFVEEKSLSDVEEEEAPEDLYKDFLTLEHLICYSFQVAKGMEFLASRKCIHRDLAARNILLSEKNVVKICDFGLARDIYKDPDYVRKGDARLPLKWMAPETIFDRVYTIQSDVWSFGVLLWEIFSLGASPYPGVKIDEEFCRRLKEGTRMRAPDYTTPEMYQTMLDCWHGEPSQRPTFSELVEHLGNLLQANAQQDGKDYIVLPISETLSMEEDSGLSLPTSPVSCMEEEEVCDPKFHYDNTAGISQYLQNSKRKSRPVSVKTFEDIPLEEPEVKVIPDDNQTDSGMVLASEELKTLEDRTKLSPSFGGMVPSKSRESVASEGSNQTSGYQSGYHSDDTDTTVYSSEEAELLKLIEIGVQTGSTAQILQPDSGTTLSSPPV
METRIC: log10 of IC50 (log10 of the value in nM)
Response schema: value (number) is log10 of IC50 in units of nM.

Observe how each entry below is paired with its result.
FC(F)(F)c1cc(Br)cc(Nc2nnc(Cc3ccncc3)c3ccccc23)c1; 2.58
Clc1ccc(Nc2nnc(NCc3ccncc3)c3ccccc23)cc1; 3.67
Clc1ccc(Sc2nnc(Cc3ccncc3)c3ccccc23)cc1; 3.11
CC(c1ccncc1)c1nnc(Nc2ccc(Cl)cc2)c2ccccc12 (centres undefined); 2.32
Cc1cc(C)cc(Nc2nnc(Cc3ccncc3)c3ccccc23)c1; 1.60

Case `Clc1ccc(Oc2nnc(Cc3ccncc3)c3ccccc23)cc1` , Vascular endothelial growth factor receptor 2 (Homo sapiens, UniProt P35968), log10 of IC50 recorded as 3.20
